These data points were gathered from PubChem BioAssay (NCI).

system: SR leukemia; test: NCI-60 one-dose screen, 48 h (100 = growth as untreated, 0 = no growth, -100 = all killed); conditions: 10 µM unless noted
About 83,000 compounds went through this panel and 20% of them were active in at least one assay; those are over-represented in the sample as a whole.
# growth annotations
Give your result in % as a bare value.

Reference set (2 entries):
In [3]: df
Out[3]:
                                   compound  value
0  CCCCCCCC(=O)SCC/C=C/[C@@H]1CC(=O)NCc2nc(cs2)C2=N[C@@](C)(CS2)C(=O)N[C@@H](C(C)C)C(=O)N1   6.51
1          Cc1ccc2[nH]c3nc4cccnc4c(C)c3c2c1   2.59

Please fill in: growth reported for `Fc1ccc(/C=N/n2c(-c3cc(Cl)cc(Cl)c3Cl)nn(CNc3ccc(Cl)nn3)c2=S)cc1` = 79.7

Input `Nc1nc(Cl)cc(NCCCCNc2cc(Cl)nc(N)n2)n1` . Output growth: 98.9

The recorded growth for entry `CCOC(=O)n1cnc2c(Cl)ncnc21` equals 110

Reported growth ( CCOC(=O)C1=C(N)Oc2cc(OC)ccc2C1c1ccc(F)c(F)c1 (centres undefined) ) = 12.7

// `O=C(Nc1cccc(-n2ccc3c(NC(=O)c4ccccc4)nccc32)c1)c1cccc(C(F)(F)F)c1` : growth value = 1.05

growth for `COc1cc(/C=C\c2cc(/C=C\c3ccc(O)c(OC)c3)n(C(=O)CNc3ccccc3OC)n2)ccc1O` is 2.38

Entry `OCc1cn(-c2ccc(Cl)cc2)nc1-c1ccc(O)cc1` , growth reported as 82.1

Sure, the documented growth for `CN(C)CCCOc1c(Br)cc(/C=C/C(=O)N(C)CCc2cc(Br)c(OCCCN(C)C)c(Br)c2)cc1Br` is -34.5

Value of measured growth for the entry `Cc1cccc[n+]1CCC[n+]1ccccc1C` : 96.2

---

tested on: SK-MEL-28 melanoma; assay: NCI-60 one-dose screen, 48 h (100 = growth as untreated, 0 = no growth, -100 = all killed); details: 10 µM unless noted
The panel holds about 83,000 compounds, 20% with a hit somewhere; the sample as a whole holds those more often. Active and inactive are the calls of the source. How the source made its calls: active means growth percent below 10; inactive means the rest.
Each entry below carries its recorded growth.

>>> df
                                   molecule         target_desc             value
0  CN(C)c1ccc(/C=c2\s/c(=C\C(=O)C(C)(C)C)[nH]c2=O)cc1  SK-MEL-28 melanoma   104% (inactive)
1  COCCNC(C(=O)c1ccccc1)c1ccccc1 (stereo unspecified)  SK-MEL-28 melanoma   105% (inactive)
2  COc1cc2nc(C(=O)N3CCCCC3)cc(Nc3ccccc3)c2cc1OC  SK-MEL-28 melanoma   110% (inactive)
3  COc1ccc(/C=C/C(=O)c2ccc(NC(=O)CSc3nnc(-c4cc(OC)c(OC)c(OC)c4)o3)cc2)cc1  SK-MEL-28 melanoma     -21% (active)
4            NN=C(c1ccc(Cl)cc1)c1ccc(Cl)cc1  SK-MEL-28 melanoma   117% (inactive)
5  O=C1c2ccccc2C(=O)c2c(NCCN=Cc3c(O)ccc4ccccc34)cccc21  SK-MEL-28 melanoma   117% (inactive)
6      N#Cc1c(N)nc(Cl)c(C#N)c1C(=O)c1ccccc1  SK-MEL-28 melanoma  11.6% (inactive)
7  O=C(Cn1c2ccccc2c2ccncc21)N/N=C/c1c[nH]c2ccccc12  SK-MEL-28 melanoma  56.5% (inactive)
8  C=C1C(=O)O[C@H]2[C@H]1CC/C(COC(=O)n1ccnc1C)=C\CC[C@@]1(C)O[C@@H]21  SK-MEL-28 melanoma   100% (inactive)
9   Cc1c(Cl)ccc2c(C(=O)Cl)cc(-c3ccccc3)nc12  SK-MEL-28 melanoma   103% (inactive)

Entry COc1ccc(C2=NN(C(=O)COc3ccc(Cl)cc3)C(O)(c3cc(F)c(Cl)cc3Cl)C2)cc1 (stereo unspecified) under SK-MEL-28 melanoma had growth of 103% (inactive)

growth on SK-MEL-28 melanoma for `CCOc1ccc(NC2=C(Cl)C(=O)c3ccccc3C2=O)cc1` is 46.9% (inactive)

Log: SK-MEL-28 melanoma, molecule `O=C(Cn1c2ccccc2c2ccncc21)N/N=C/c1cc(O)c(O)c(O)c1` , growth = 108% (inactive)

growth of `C#C[C@H](O)/C=C/CCCCCCC#C[C@H](O)CC[C@@H](O)C#CCCCCCC/C=C/[C@@H](O)C#C` , assay on SK-MEL-28 melanoma, is 101% (inactive)

---

tested on: UACC-62 melanoma; test: NCI-60 one-dose screen, 48 h (100 = growth as untreated, 0 = no growth, -100 = all killed); details: 10 µM unless noted
About 83,000 compounds went through this panel and 20% of them were active in at least one assay; those are over-represented in the sample as a whole.
Binary call on growth: 1 (yes) from 70% upward, 0 (no) beneath that.

Answered examples (5):
>>> print(df.to_string())
                                   compound  class_label
0  O=C(NCCNc1nccc(-c2c(-c3cccc(O)c3)nc3sccn23)n1)c1ccc(N2CCOCC2)c(C(F)(F)F)c1       0 (no)
1       COc1cc(NC(=O)C#Cc2ccccc2)c(OC)cc1Cl       0 (no)
2                 Cc1cccc(CC(=O)c2ccccc2)n1      1 (yes)
3  CCOC(=O)c1noc2c1CCc1cn(Cc3cc(OC)cc(OC)c3)cc1-2      1 (yes)
4  CCOC(=O)C(C)(CSSCC(C)(NC(=O)c1ccc2ccccc2c1)C(=O)OCC)NC(=O)c1ccc2ccccc2c1 (stereo unspecified)      1 (yes)

I'd appreciate it if you could say whether Cc1cn([C@]2(CF)O[C@H](CO)C2C)c(=O)[nH]c1=O (stereo partly specified) has growth at least equal to 70%.
1 (yes)

---

test system: UACC-62 melanoma; experiment: NCI-60 one-dose screen, 48 h (100 = growth as untreated, 0 = no growth, -100 = all killed); settings: 10 µM unless noted
Compounds without any hit were thinned out: in the full panel of roughly 83,000, 20% have a hit. The source made the active and inactive calls. Rule for the calls: active = growth percent below 10; inactive = the rest.
Experimental endpoint: growth

                            molecule_smiles       target_desc             value
0  Cc1ccc2nc(-c3ccc(-n4on4-c4ccc(/C=C/c5ccc(-n6on6-c6ccc(-c7nc8ccc(C)cc8s7)cc6)cc5S(=O)(=O)O)c(S(=O)(=O)O)c4)cc3)sc2c1  UACC-62 melanoma   105% (inactive)
1         COc1ccccc1P(c1ccccc1OC)c1ccccc1OC  UACC-62 melanoma    90% (inactive)
2  O=C(Nc1cccc(-n2ccc3c(NC(=O)c4ccccc4)ncnc32)c1)Nc1ccc(Cl)c(C(F)(F)F)c1  UACC-62 melanoma  39.5% (inactive)
3  S=c1n(CNc2ccc(Cl)nn2)nc(-c2cc(Cl)cc(Cl)c2Cl)n1/N=C/c1ccc(Cl)cc1  UACC-62 melanoma  90.4% (inactive)

Next:
Sample `COc1ccccc1N1CCN(CCCOc2ccc(OCCCN3CCN(c4ccccc4OC)CC3)c(C(=O)c3cc(OC)c(OC)c(OC)c3)c2)CC1` ; growth observed: 109% (inactive)

---

tested on: UACC-62 melanoma; experiment: NCI-60 one-dose screen, 48 h (100 = growth as untreated, 0 = no growth, -100 = all killed); conditions: 10 µM unless noted
The panel holds about 83,000 compounds, 20% with a hit somewhere; the sample as a whole holds those more often.
Examples of molecules with documented growth follow.
Write it as a number; the unit % goes unstated.

In [3]: df
Out[3]:
                                   molecule       target_desc  value_units  value
0  O=C(CSc1nnc(-c2ccc(Cl)cc2)o1)Nc1ccc(C(=O)/C=C/c2ccccc2)cc1  UACC-62 melanoma            %   85.6
1  C[C@@H]1CC2C3C[C@H](F)C4=CC(=O)C=C[C@]4(C)[C@@]3(F)[C@@H](O)C[C@]2(C)[C@@]1(O)C(=O)CO (stereo partly specified)  UACC-62 melanoma            %   97.3
2         COc1cc(NS(=O)(=O)c2ccc(N)cc2)ncn1  UACC-62 melanoma            %   99.1
3  CCOC(=O)C1CN(Cc2ccccc2)C(=O)C1=O (stereo unspecified)  UACC-62 melanoma            %    103

Now for a further molecule.
Test item `Cc1ccc(N(CC2=NCCN2)c2cccc(O)c2)cc1` ; UACC-62 melanoma; reported growth was 105

---

system: PC-3 prostate; assay: NCI-60 one-dose screen, 48 h (100 = growth as untreated, 0 = no growth, -100 = all killed); settings: 10 µM unless noted
This is part of a sample that, as a whole, favours compounds with a hit. Of some 83,000 tested, about 20% had one in any assay.
Each entry below carries its reported growth.
Quick reminder: number only, in %, skip the unit.

The examples below pair each entry with its known result.
In [3]: df
Out[3]:
                                   molecule  experimental_endpoint  value
0  COc1cc(NC(C)CCCN2C(=O)c3ccccc3C2=O)c2nccc(C)c2c1OC (stereo not drawn)                 growth   58.6
1         Clc1ccc2c(c1)nnn1c3ncccc3c(Br)c21                 growth   78.6

The molecule listed as `CCCCNC(=O)Oc1ccc(/C(=C(/CC)Cc2ccccc2)c2ccc(OCCCN(C)C)cc2)cc1` has a reported growth of 81.2
